system: 201T; test: relative viability (nuclei count vs DMSO), 5 days (fraction); higher = more cells survive; details: first compound 0.01581 µM
Exercise: for every item that follows, state its recorded relative viability.

# get_value(readout='relative viability', item= COc1cc2nccc(Oc3ccc(NC(=O)Nc4cc(C)on4)c(Cl)c3)c2cc1OC [Tivozanib] + O=C(CCCCCCC(=O)Nc1ccccc1)NO [Vorinostat] (partner 1 µM) ) 0.99

# get_value(readout='relative viability', item= Nc1ccn([C@@H]2O[C@H](CO)[C@@H](O)[C@@H]2O)c(=O)n1 [Cytarabine] + COc1cccc2cc(-c3nc([C@H]4CC[C@H](C(=O)O)CC4)n4ncnc(N)c34)[nH]c12 [OSI-027] (partner 0.5 µM) ) 0.782

# get_value(readout='relative viability', item= Nc1ccn([C@@H]2O[C@H](CO)[C@@H](O)[C@@H]2O)c(=O)n1 [Cytarabine] + Cc1nc(NC(=O)N2CCC[C@H]2C(N)=O)sc1-c1ccnc(C(C)(C)C(F)(F)F)c1 [Alpelisib] (partner 2 µM) ) 0.983

* * *

system: NCI-H727; assay: relative viability (nuclei count vs DMSO), 5 days (fraction); higher = more cells survive; conditions: first compound 0.5 µM
observation type: relative viability
The response must contain the number and no unit.

NCI-H727 / relative viability / Nc1ccn([C@@H]2O[C@H](CO)[C@@H](O)[C@@H]2O)c(=O)n1 [Cytarabine] + C[C@]1(O)C[C@@H](c2nc(-c3ccc4ccc(-c5ccccc5)nc4c3)c3c(N)nccn32)C1 [Linsitinib] (partner 1 µM) : value? 0.215

NCI-H727 / relative viability / COc1cc2nccc(Oc3ccc(NC(=O)Nc4cc(C)on4)c(Cl)c3)c2cc1OC [Tivozanib] + N=C(N)NC(=N)NCCc1ccccc1 [Phenformin] (partner 250 µM) : value? 0.558

NCI-H727 / relative viability / Nc1ccn([C@@H]2O[C@H](CO)[C@@H](O)[C@@H]2O)c(=O)n1 [Cytarabine] + CC(C)C[C@H](NC(=O)[C@H](Cc1ccccc1)NC(=O)c1cnccn1)B(O)O [Bortezomib] (partner 0.002 µM) : value? 0.315

* * *

Exercise: for every item that follows, state its recorded relative viability.
tested on: NCI-H1975; experiment: relative viability (nuclei count vs DMSO), 5 days (fraction); higher = more cells survive; settings: first compound 500 µM
The response must contain the number and no unit.

# get_value(readout='relative viability', item= O=C(O)CCCCC(CCSCc1ccccc1)SCc1ccccc1 (stereo not drawn) [CPI-613] + COc1cccc2cc(-c3nc([C@H]4CC[C@H](C(=O)O)CC4)n4ncnc(N)c34)[nH]c12 [OSI-027] (partner 0.5 µM) ) 0.0526

# get_value(readout='relative viability', item= O=C(O)CCCCC(CCSCc1ccccc1)SCc1ccccc1 (stereo not drawn) [CPI-613] + CCNC(=O)c1noc(-c2cc(C(C)C)c(O)cc2O)c1-c1ccc(CN2CCOCC2)cc1 [Luminespib] (partner 0.01 µM) ) 0.28

# get_value(readout='relative viability', item= O=C(O)CCCCC(CCSCc1ccccc1)SCc1ccccc1 (stereo not drawn) [CPI-613] + NC(=O)Nc1cc(-c2cccc(F)c2)sc1C(=O)N[C@H]1CCCNC1 [AZD7762] (partner 0.2 µM) ) 0.677

* * *

test system: NCI-H596; assay: relative viability (nuclei count vs DMSO), 5 days (fraction); higher = more cells survive; settings: first compound 0.8 µM
observation type: relative viability

# get_value(readout='relative viability', item= Cc1cnc(-c2cnc(NCCNc3ccc(C#N)cn3)nc2-c2ccc(Cl)cc2Cl)[nH]1 + Cc1cc(Nc2cc(N3CCN(C)CC3)nc(Sc3ccc(NC(=O)C4CC4)cc3)n2)n[nH]1 [Tozasertib] (partner 0.1 µM) ) 0.839

# get_value(readout='relative viability', item= Cc1cnc(-c2cnc(NCCNc3ccc(C#N)cn3)nc2-c2ccc(Cl)cc2Cl)[nH]1 + O=C(c1cc(Cc2n[nH]c(=O)c3ccccc23)ccc1F)N1CCN(C(=O)C2CC2)CC1 [Olaparib] (partner 8 µM) ) 0.775

# get_value(readout='relative viability', item= Cc1cnc(-c2cnc(NCCNc3ccc(C#N)cn3)nc2-c2ccc(Cl)cc2Cl)[nH]1 + N=C(N)NC(=N)NCCc1ccccc1 [Phenformin] (partner 250 µM) ) 0.595

# get_value(readout='relative viability', item= Cc1cnc(-c2cnc(NCCNc3ccc(C#N)cn3)nc2-c2ccc(Cl)cc2Cl)[nH]1 + CC1(C)CCC(c2ccc(Cl)cc2)=C(CN2CCN(c3ccc(C(=O)NS(=O)(=O)c4ccc(N[C@H](CCN5CCOCC5)CSc5ccccc5)c(S(=O)(=O)C(F)(F)F)c4)cc3)CC2)C1 [Navitoclax] (partner 0.5 µM) ) 0.882

* * *

tested on: NCI-H2405; assay: relative viability (nuclei count vs DMSO), 5 days (fraction); higher = more cells survive; details: first compound 5 µM
observation type: relative viability
The response must contain the number and no unit.

NCI-H2405 / relative viability / O=C(O)CCCCC(CCSCc1ccccc1)SCc1ccccc1 (centres undefined) [CPI-613] + Cc1cc(Nc2cc(N3CCN(C)CC3)nc(Sc3ccc(NC(=O)C4CC4)cc3)n2)n[nH]1 [Tozasertib] (partner 0.1 µM) : value? 0.75

NCI-H2405 / relative viability / O=C(O)CCCCC(CCSCc1ccccc1)SCc1ccccc1 (centres undefined) [CPI-613] + CS(=O)(=O)N1CCN(Cc2cc3nc(-c4cccc5[nH]ncc45)nc(N4CCOCC4)c3s2)CC1 [Pictilisib] (partner 1 µM) : value? 0.493

NCI-H2405 / relative viability / O=C(O)CCCCC(CCSCc1ccccc1)SCc1ccccc1 (centres undefined) [CPI-613] + COc1cc2c(Oc3ccc(NC(=O)C4(C(=O)Nc5ccc(F)cc5)CC4)cc3F)ccnc2cc1OCCCN1CCOCC1 [Foretinib] (partner 0.25 µM) : value? 1.08

NCI-H2405 / relative viability / O=C(O)CCCCC(CCSCc1ccccc1)SCc1ccccc1 (centres undefined) [CPI-613] + C[C@]1(O)C[C@@H](c2nc(-c3ccc4ccc(-c5ccccc5)nc4c3)c3c(N)nccn32)C1 [Linsitinib] (partner 1 µM) : value? 0.979

* * *

test system: NCI-H1355; assay: relative viability (nuclei count vs DMSO), 5 days (fraction); higher = more cells survive; details: first compound 0.8 µM
Exercise: for every item that follows, state its recorded relative viability.
The response must contain the number and no unit.

# get_value(readout='relative viability', item= Cc1cnc(-c2cnc(NCCNc3ccc(C#N)cn3)nc2-c2ccc(Cl)cc2Cl)[nH]1 + COc1cccc2cc(-c3nc([C@H]4CC[C@H](C(=O)O)CC4)n4ncnc(N)c34)[nH]c12 [OSI-027] (partner 0.5 µM) ) 0.395

# get_value(readout='relative viability', item= Cc1cnc(-c2cnc(NCCNc3ccc(C#N)cn3)nc2-c2ccc(Cl)cc2Cl)[nH]1 + CS(=O)(=O)N1CCN(Cc2cc3nc(-c4cccc5[nH]ncc45)nc(N4CCOCC4)c3s2)CC1 [Pictilisib] (partner 1 µM) ) 0.399

# get_value(readout='relative viability', item= Cc1cnc(-c2cnc(NCCNc3ccc(C#N)cn3)nc2-c2ccc(Cl)cc2Cl)[nH]1 + CC(=O)Nc1cccc(-n2c(=O)n(C3CC3)c(=O)c3c(Nc4ccc(I)cc4F)n(C)c(=O)c(C)c32)c1 [Trametinib] (partner 0.02 µM) ) 0.41

* * *

Exercise: for every item that follows, state its recorded relative viability.
tested on: HARA; assay: relative viability (nuclei count vs DMSO), 5 days (fraction); higher = more cells survive; conditions: first compound 2.53 µM
The response must contain the number and no unit.

# get_value(readout='relative viability', item= O=c1[nH]c2ccccc2n1C1CCN(CCCC(c2ccc(F)cc2)c2ccc(F)cc2)CC1 [Pimozide] + Cc1nc(NC(=O)N2CCC[C@H]2C(N)=O)sc1-c1ccnc(C(C)(C)C(F)(F)F)c1 [Alpelisib] (partner 2 µM) ) 0.675

# get_value(readout='relative viability', item= O=c1[nH]c2ccccc2n1C1CCN(CCCC(c2ccc(F)cc2)c2ccc(F)cc2)CC1 [Pimozide] + Nc1ncn([C@H]2C[C@H](O)[C@@H](CO)O2)c(=O)n1 [Decitabine] (partner 2 µM) ) 0.528

# get_value(readout='relative viability', item= Cc1cnc(-c2cnc(NCCNc3ccc(C#N)cn3)nc2-c2ccc(Cl)cc2Cl)[nH]1 + COc1cc2c(Oc3ccc(NC(=O)C4(C(=O)Nc5ccc(F)cc5)CC4)cc3F)ccnc2cc1OCCCN1CCOCC1 [Foretinib] (partner 0.25 µM) ) 0.877

# get_value(readout='relative viability', item= Cc1cnc(-c2cnc(NCCNc3ccc(C#N)cn3)nc2-c2ccc(Cl)cc2Cl)[nH]1 + C[C@]1(O)C[C@@H](c2nc(-c3ccc4ccc(-c5ccccc5)nc4c3)c3c(N)nccn32)C1 [Linsitinib] (partner 1 µM) ) 0.933

* * *

Exercise: for every item that follows, state its recorded relative viability.
system: EPLC-272H; assay: relative viability (nuclei count vs DMSO), 5 days (fraction); higher = more cells survive; details: first compound 0.5 µM
The response must contain the number and no unit.

EPLC-272H / relative viability / COc1cc2nccc(Oc3ccc(NC(=O)Nc4cc(C)on4)c(Cl)c3)c2cc1OC [Tivozanib] + Nc1nc2[nH]cc(CCc3ccc(C(=O)N[C@@H](CCC(=O)O)C(=O)O)cc3)c2c(=O)[nH]1 [Pemetrexed] (partner 0.2 µM) : value? 0.288

EPLC-272H / relative viability / Nc1ccn([C@@H]2O[C@H](CO)[C@@H](O)[C@@H]2O)c(=O)n1 [Cytarabine] + Cc1nc(Nc2ncc(C(=O)Nc3c(C)cccc3Cl)s2)cc(N2CCN(CCO)CC2)n1 [Dasatinib] (partner 0.075 µM) : value? 0.0979

EPLC-272H / relative viability / COc1cc2nccc(Oc3ccc(NC(=O)Nc4cc(C)on4)c(Cl)c3)c2cc1OC [Tivozanib] + Cc1nc(Nc2ncc(C(=O)Nc3c(C)cccc3Cl)s2)cc(N2CCN(CCO)CC2)n1 [Dasatinib] (partner 0.075 µM) : value? 0.413

EPLC-272H / relative viability / COc1cc2nccc(Oc3ccc(NC(=O)Nc4cc(C)on4)c(Cl)c3)c2cc1OC [Tivozanib] + Nc1ncn([C@H]2C[C@H](O)[C@@H](CO)O2)c(=O)n1 [Decitabine] (partner 2 µM) : value? 0.365

EPLC-272H / relative viability / Nc1ccn([C@@H]2O[C@H](CO)[C@@H](O)[C@@H]2O)c(=O)n1 [Cytarabine] + C[C@@H](Oc1cc(-c2cnn(C3CCNCC3)c2)cnc1N)c1c(Cl)ccc(F)c1Cl [Crizotinib] (partner 1 µM) : value? 0.368

EPLC-272H / relative viability / Nc1ccn([C@@H]2O[C@H](CO)[C@@H](O)[C@@H]2O)c(=O)n1 [Cytarabine] + C[C@]1(O)C[C@@H](c2nc(-c3ccc4ccc(-c5ccccc5)nc4c3)c3c(N)nccn32)C1 [Linsitinib] (partner 1 µM) : value? 0.532
